Tested on: OVCAR-4 ovarian
Assay: NCI tumour cell line growth inhibition, 48 h
Recorded TGI values for a group of molecules are listed next.

O=C1C(CO)=C[C@@H](O)[C@H]2O[C@@H]12 :: 53.4 µM
CCOC(=O)CNC(=O)CNC(=O)CNC(=O)CNNc1c(OCc2ccccc2)c(=O)c1=O :: > 100 µM
CCOc1ccc2c(c1)C(=O)c1c-2n(CCCN)c(=O)c2cc([N+](=O)[O-])ccc12 :: 2.18 µM

Switching to the query record.
Enter reported TGI observed with OVCAR-4 ovarian for COC1C(O)CC(OC2CC(OC3CC(O[C@@H]4C(=O)c5c(cc6cc(OC7CC(OC8CC(O)C(O)C(C)O8)C(O)C(C)O7)c(C)c(O)c6c5O)C[C@H]4[C@H](OC)C(=O)[C@@H](O)[C@@H](C)O)OC(C)C3O)OC(C)C2O)OC1C (some centres undefined) > 100 µM

###

Test system: SF-295 CNS
Test: NCI tumour cell line growth inhibition, 48 h
Catalogue of TGI values

Cc1c(-c2ccccc2)c(C#N)c2nnn(C)c(=O)n12 :: > 100 µM
Cc1cccc(/C=C2/C(=O)Nc3ccccc32)n1 :: 54.4 µM
CN(N=O)C(=O)Nc1ccc(C(=O)O)cc1 :: > 100 µM
O=C(/C=C/c1ccccc1Br)c1ccccc1 :: 23.4 µM
COC(=O)C1=C(C(=O)OC)C(OO)(c2ccccc2)OC1=O (stereo not given) :: > 100 µM
OCc1ncc(-c2ccccc2)s1 :: > 100 µM
COC(=O)c1ccc(NC(N)=NCC(C)(C)COc2ccc(C(F)(F)F)cc2)nc1 :: 3.04 µM
Cc1cccc(Cl)c1NC(=O)c1cccc([N+](=O)[O-])c1O :: > 100 µM

Which TGI value is on record for O=C1OC(C2Cc3ccc4c(c3C2=O)CCCC4)c2ccccc21 (stereo not given) ? > 100 µM

Which TGI reading was recorded for the molecule COC(=O)[C@@H]1[C@H](O)[C@H](C)[C@H](O)[C@H](C)/C=C\C=C(C)C(=O)Nc2c(C)c(OC(C)=O)c3c(c2O)C(=O)C(C)=C2OCOC(=C23)C(C)=C[C@@](C)(O)[C@H](O)[C@@H](C)[C@H]1OC(C)=O ? > 100 µM

Request the reported TGI associated with COc1cc(/C=C2\C(=O)N(c3ccc(NC(C)=O)cc3)C(c3ccccc3)S2(=O)=O)cc(OC)c1OC (stereo not given) > 100 µM

Bench note: what TGI did CC(=O)N1N=C(c2ccc(Nc3nc(Nc4ccc(F)cc4)nc(Nc4ccc(Cl)cc4)n3)cc2)CC1c1ccc(N(C)C)cc1 (stereo not given) show? 37.4 µM

Dear colleague, I am looking for the recorded TGI of the following molecule: C=CCN(N=O)C(=O)N(CCCCC(NC(C)=O)C(=O)NCc1ccccc1)Cc1ccccc1 (stereo not given) > 100 µM

Fill blank: measured TGI of the molecule O=C1[C@@H]2C(c3ccncc3)=NO[C@@H]2C(=O)N1c1ccc(Cc2ccc(N3C(=O)[C@H]4C(c5ccncc5)=NO[C@H]4C3=O)cc2)cc1 is ____. > 100 µM

###

Test system: SF-539 CNS
Test: NCI tumour cell line growth inhibition, 48 h; in the data active = GI50 below about 0.43 µM; inactive = the rest
# output must be one of active, inactive

Worked set:
C=C(CN(C)Cc1ccccc1)c1ccc(C(=O)Nc2ccccc2N)cc1 :: inactive
CSC(=NC#N)S/C=C/C(=O)c1cccc2ccccc12 :: inactive
O=C(NCCNC(=O)c1ccc(F)cc1)Nc1ccc(-n2cc(-c3ccncc3)c(-c3ccc(Cl)c(O)c3)n2)cc1 :: active
COc1ccc(C2CC(c3cccc(OC)c3)=NN2C(=O)c2cc(OC)c(OC)c(OC)c2)cc1 (stereo unspecified) :: inactive
NC(=S)N/N=C/c1ccc(OC(=O)COc2ccccc2)cn1 :: inactive
CNC1=CC(=O)C2=C(C1=O)C1C3=C(C(=O)C(Br)=C(OC)C3=O)C2c2ccccc21 (stereo unspecified) :: inactive
CC(=O)[O][Hg][CH2]C1(C)COC(C)([CH2][Hg][O]C(C)=O)CO1 (stereo unspecified) :: inactive
Clc1ccc(N/N=C(\c2ccccc2)c2ccccn2)nc1 :: active
CCCC(CCC)Oc1ccc(CCCC2=C(O)c3ccccc3C(=O)C2=O)cc1 :: inactive
COc1ccc(Nc2ncc(-c3ccccc3)o2)cc1OC :: inactive

Hello, I am checking results. What call was entered for CCOc1ccc2c(c1)C(=O)c1c-2n(CCCN)c(=O)c2cc([N+](=O)[O-])ccc12 ? active

Which outcome was assigned to C[n+]1cc2cc3c(cc2c2ccccc21)OCO3 in this test? inactive

Dear colleague, could you share the recorded outcome for N#CSCC1CC(O)(c2ccccc2)CC(c2ccc(Cl)cc2)O1 (stereo unspecified) when you have a moment? inactive

Could you check what this test reported for CNC(C)[C@H]1CCC2C3CCC4C[C@@H](N(C)C(=O)c5ccccc5)CC[C@]4(C)C3CC[C@@]21C (stereo partly specified) ? inactive

Field: outcome | Entry: CNC12C3C4C1C1C2C3C41C(=O)N[C@H](C(=O)N(C)[C@H](C[C@@H](OC(C)=O)c1nc(C(=O)N[C@@H](Cc2ccccc2)C[C@H](C)C(=O)OC)cs1)C(C)C)C1CC1 (stereo partly specified) active

Please let me know the test result on file for Cc1ccc(NC(=O)N2CCCCC2)cc1[N+](=O)[O-] . inactive

###

Tested on: HCT-15 colon
Experiment: NCI tumour cell line growth inhibition, 48 h
# reported TGI; entries follow

CC1(C)CC2C(/C1=N/O)C1(C)CCCC2(C)C1O (centres undefined) :: > 100 µM

Would you kindly look at the next entry?
Which TGI value is on record for COc1ccc(/C(=C\c2cc(OC)c(OC)c(OC)c2)C(=O)O)cc1 ? > 100 µM

###

Test system: SN12C renal
Assay: NCI tumour cell line growth inhibition, 48 h
Endpoint: TGI (µM)
Your answer should be a plain number; it is taken to be in µM.

CNC1=CC(=O)C2=C(C1=O)C1C3=C(C(=O)C(Br)=C(OC)C3=O)C2c2ccccc21 (stereo not given) :: 2.07

# ---- query compound ----
API: value(readout= TGI, system= SN12C renal, query= CC(=O)C(N=NC1CCC(S(=O)(=O)NB2N=CS2)CC1)C(=O)Nc1ccccc1C (stereo not given) ) 34.7

###

GI50 values by entry
System: M14 melanoma
Experiment: NCI tumour cell line growth inhibition, 48 h

C[CH2][Ge]([CH2]C)([CH2]C)[O]C(=O)C([O][Ge]([CH2]C)([CH2]C)[CH2]C)c1ccccc1 (stereo not drawn) :: 17.1 µM
CNC1=CC(=O)C2=C(C1=O)C1C3=C(C(=O)C(Br)=C(OC)C3=O)C2c2ccccc21 (stereo not drawn) :: 6.76 µM

Below: the item to evaluate.
Look at this compound and give its reported GI50. C[C@@H]1CC[C@@H]2[C@@H]1[C@H](OC(=O)c1ccc3ccccc3c1)[C@]1(C3CCCCC3)C[C@@H](OC(=O)CO)[C@@]2(C)O1 13.2 µM

###

Tested on: SF-539 CNS
Test: NCI tumour cell line growth inhibition, 48 h
Endpoint: TGI (µM)
Just the number please, in µM, no unit attached.

These recorded examples may help you get a feel for the data.
CC(=O)Oc1cc(/C=C/c2ccc(O)cc2)cc(OC(C)=O)c1 :: 41.5
CCOC(=O)Nc1ccc(C(=O)/C=C/c2ccccc2)cc1 :: 46.3
CCCC(CCC)Oc1ccc(CCCC2=C(O)c3ccccc3C(=O)C2=O)cc1 :: 18.7

Turning now to a further molecule:
Given the entry COC(=O)/C=C/C(=O)Nc1cc(Cl)c(Cl)cc1CC(=O)N(C)[C@H]1CCCC[C@@H]1N1CCCC1 , report its measured TGI. 13.3

###

Test system: CCRF-CEM leukemia
Form entry, call: pick from label 1 (active), label 0 (inactive)

Look over these answered cases.
CC(=O)OC1CC2(O)C(CCC3(C)C(c4ccc(=O)oc4)CCC32O)C2(C)CCC(OC3OC(CO)C(O)C(O)C3O)C=C12 (centres undefined) :: label 1
CNC12C3C4C1C1C2C3C41C(=O)N[C@H](C(=O)N(C)[C@H](C[C@@H](OC(C)=O)c1nc(C(=O)N[C@@H](Cc2ccccc2)C[C@H](C)C(=O)OC)cs1)C(C)C)C1CC1 (some centres undefined) :: label 1
CC(=O)Oc1ccccc1C(=O)NCCC[Se]C#N :: label 0

Kindly consider the entry below.
For this compound, state the assay outcome: N#CSCC1CC(O)(c2ccccc2)CC(c2ccc(Cl)cc2)O1 (centres undefined) label 0

###

Below, each entry is listed alongside its reported TGI.
Tested on: SF-539 CNS
Experiment: NCI tumour cell line growth inhibition, 48 h

Nc1cc(N)cc(Cc2ccccc2)c1 :: > 100 µM
O=C1/C(=C/c2ccc(OC(=O)c3ccc(Cl)cc3)cc2)CCC/C1=C\c1ccc(OC(=O)c2ccc(Cl)cc2)cc1 :: > 100 µM
O=C1O/C(=C(/Cl)c2c3ccccc3cc3ccccc23)c2ccccc21 :: 47.8 µM

Entry CCOC(=O)C(C)c1nc2cc(C(F)(F)F)ccc2[nH]c1=O (stereo unspecified) : reported TGI = ? > 100 µM

Bench note: what TGI did Cc1cccc2cc3cccc(C(=O)NCCN(C)C)c3nc12 show? 1.61 µM

# TGI lookup, item NC(=S)N/N=C1\CC(c2ccccc2)Nc2ccccc21 (stereo unspecified) > 100 µM
